- target-of-assay: Tubulin (Homo sapiens) (UniProt P68371+Q9H4B7+P0DPH7+P68366+Q13509+Q71U36+P04350+Q3ZCM7+P07437+P68363+Q9BQE3+Q6PEY2+Q13885+Q9BVA1+Q9BUF5)
- experimental-details: Inhibition of [3H]Colchicine binding to tubulin (unknown origin) at 5 uM incubated for 10 mins by scintillation counter relative to control
- Assay type: protein-complex assay
test-readout: inhibition (%)

1. COc1cc(C(=O)c2c[nH]c3cc(-c4ccc(C)cc4)ccc23)cc(OC)c1OC ... 17
2. COc1cc(C(=O)c2c[nH]c3cc(-c4cccc(N)c4)ccc23)cc(OC)c1OC ... 91
3. COc1cc(C(=O)c2c[nH]c3cc(-c4cccc([N+](=O)[O-])c4)ccc23)cc(OC)c1OC ... 41
4. COc1ccc(-c2ccc3c(C(=O)c4cc(OC)c(OC)c(OC)c4)c[nH]c3c2)cc1 ... 9.1
5. COc1cc(C(=O)c2c[nH]c3cc(-c4cccc(O)c4)ccc23)cc(OC)c1OC ... 87
6. COc1cccc(-c2ccc3c(C(=O)c4cc(OC)c(OC)c(OC)c4)c[nH]c3c2)c1 ... 87
7. COc1cc(C(=O)c2c[nH]c3cc(-c4ccccc4)ccc23)cc(OC)c1OC ... 86

The origin of these recorded values is ChEMBL document CHEMBL5537121.
